subjectOfTest: KRAS G12C (GMPPNP-loaded) and cRAF Ras-binding domain (Homo sapiens, UniProt P01116, C118S/C51S/C80L/G12C)
Construct: truncated version comprising amino acids 1-169
Sequence (P01116 1-169 isoform P01116-2 G12C/C51S/C80L/C118S): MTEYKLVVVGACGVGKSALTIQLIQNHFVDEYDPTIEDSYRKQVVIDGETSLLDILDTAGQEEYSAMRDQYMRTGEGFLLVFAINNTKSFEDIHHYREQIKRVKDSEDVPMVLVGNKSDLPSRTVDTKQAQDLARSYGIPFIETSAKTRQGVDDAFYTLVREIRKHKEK
assay: Inhibition of KRAS G12C and cRAF binding (AlphaScreen)
conditionsUsed: KRAS G12C preloaded with GTP analogue GMPPNP, 2 hours preincubation
propertyMeasured: IC50

>>> reportedresult("C=CC(=O)N1CC(CN(C)c2nc(OC[C@@]34CCCN3C[C@H](F)C4)nc3c2C[C@H](C)[C@@H](c2nc(N)cc(C)c2C(F)(F)F)C3)C1")
"≥ 0.5 µM"
>>> reportedresult("CN(C)CC#CC(=O)N1CC[C@@H](N(C)c2nc(OC[C@@]34CCCN3C[C@H](F)C4)nc3c(F)c(-c4nc(N)cc5cccc(Cl)c45)ncc23)C1 [Example 38]")
"< 0.01 µM"
>>> reportedresult("Cc1nsc(/C=C/C(=O)N2CC[C@@H](N(C)c3nc(OC[C@@]45CCCN4C[C@H](F)C5)nc4c3C[C@@H](C)[C@H](c3nc(N)cc(C)c3C(F)(F)F)C4)C2)n1")
"0.01 to 0.1 µM"
>>> reportedresult("CN(c1nc(OC[C@@]23CCCN2C[C@H](F)C3)nc2c(F)c(-c3nc(N)cc4cccc(F)c34)ncc12)[C@@H]1CCN(C(=O)/C=C/CN2CCOCC2)C1")
"≥ 0.5 µM"
>>> reportedresult("C=CC(=O)N1CC[C@@H](N(C)c2nc(OCC34CCCN3CCC4)nc3c2C[C@H](C)[C@@H](c2nc(N)cc(C)c2C(F)(F)F)C3)C1 (single isomer, unassigned) [Example 18]")
"0.1 to 0.5 µM"
>>> reportedresult("Cc1nccc(/C=C/C(=O)N2CC(CN(C)c3nc(OC[C@@]45CCCN4C[C@H](F)C5)nc4c(F)c(-c5nc(N)cc6cccc(F)c56)ncc34)C2)n1")
"0.01 to 0.1 µM"
>>> reportedresult("C=CC(=O)N1CC[C@@H](N(C)c2nc(OC[C@@]34CCCN3C[C@H](F)C4)nc3c(F)c(-c4cccc(Cl)c4C(F)(F)F)ncc23)[C@H]1C [Example 217]")
"0.01 to 0.1 µM"
>>> reportedresult("Cc1noc(/C=C/C(=O)N2CC[C@@H](N(C)c3nc(OC[C@@]45CCCN4C[C@H](F)C5)nc4c(F)c(-c5nc(N)cc(C)c5C)ncc34)C2)n1")
"0.01 to 0.1 µM"
>>> reportedresult("C=CC(=O)N1CC[C@@H](N(C)c2nc(OC[C@@]34CCCN3C[C@H](F)C4)nc3c(F)c(-c4cnn5cccc(F)c45)ncc23)C1")
"≥ 0.5 µM"
>>> reportedresult("C=CC(=O)N1CC[C@@H](N(C)c2nc(OC[C@@]34CCCN3C[C@H](F)C4)nc3c(F)c(-c4cncc(Cl)c4C4CC4)ncc23)C1")
"≥ 0.5 µM"
>>> reportedresult("Cc1cc(N)nc([C@@H]2Cc3nc(OC[C@@]45CCCN4C[C@H](F)C5)nc(N(C)CC4CN(C(=O)/C=C/c5nc(C(C)(C)O)no5)C4)c3C[C@H]2C)c1C(F)(F)F (single isomer, unassigned)")
"0.01 to 0.1 µM"

----------
subjectOfTest: KRAS G12C (GMPPNP-loaded) and cRAF Ras-binding domain (Homo sapiens, UniProt P01116, C118S/C51S/C80L/G12C)
Construct: truncated version comprising amino acids 1-169
assay: Inhibition of KRAS G12C and cRAF binding (AlphaScreen)
conditionsUsed: KRAS G12C preloaded with GTP analogue GMPPNP, 2 hours preincubation
propertyMeasured: IC50

>>> reportedresult("C=CC(=O)N1CC[C@@H](N(C)c2nc(OC[C@@]34CCCN3C[C@H](F)C4)nc3c(F)c(-c4cc(O)cnc4C4CC4)ncc23)C1")
"≥ 500 nM"
>>> reportedresult("CC(C)c1noc(/C=C/C(=O)N2CC(CN(C)c3nc(OC[C@@]45CCCN4C[C@H](F)C5)nc4c(F)c(-c5nc(N)cc6cccc(Cl)c56)ncc34)C2)n1")
"100 to 500 nM"
>>> reportedresult("C=CC(=O)N1CC[C@@H](N(C)c2nc(OC[C@@]34CCCN3C[C@H](F)C4)nc3c(F)c(-c4cc(O)cc5nccnc45)ncc23)C1")
"100 to 500 nM"

----------
IC50 values for the compounds below.
subjectOfTest: KRAS G12C (GMPPNP-loaded) and cRAF Ras-binding domain (Homo sapiens, UniProt P01116, C118S/C51S/C80L/G12C)
Construct: truncated version comprising amino acids 1-169
assay: Inhibition of KRAS G12C and cRAF binding (AlphaScreen)
conditionsUsed: KRAS G12C preloaded with GTP analogue GMPPNP, 2 hours preincubation
propertyMeasured: IC50

>>> reportedresult("C=CC(=O)N1CC[C@@H](N(C)c2nc(OC[C@@]34CCCN3C[C@H](F)C4)nc3c(F)c(-c4cc(OC(F)F)ccc4Cl)ncc23)C1 [Example 186]")
"≥ 500 nM"
>>> reportedresult("C=CC(=O)N1CC[C@@H](N(C)c2nc(OC[C@@]34CCCN3C[C@H](F)C4)nc3c(F)c(-c4c(C)cc(F)c5[nH]ncc45)ncc23)C1 [Example 232]")
"≥ 500 nM"
>>> reportedresult("Cc1nccc(/C=C/C(=O)N2CC(CN(C)c3nc(OC[C@@]45CCCN4C[C@H](F)C5)nc4c(F)c(-c5nc(N)cc6cccc(Cl)c56)ncc34)C2)n1 [Example 156]")
"10 to 100 nM"
>>> reportedresult("C=CC(=O)N1CC[C@@H](N(C)c2nc(OC[C@@]34CCCN3C[C@H](F)C4)nc3c2C[C@H](C)[C@@H](c2nc(N)cc(C)c2C(F)(F)F)C3)C1 [Example 145]")
"≥ 500 nM"
>>> reportedresult("C=CC(=O)N1CC[C@@H](N(C)c2nc(OC[C@@]34CCCN3C[C@H](F)C4)nc3c(F)c(-c4scnc4C)ncc23)C1 [Example 183]")
"≥ 500 nM"
>>> reportedresult("C=CC(=O)N1CC[C@@H](N(C)c2nc(OC[C@@]34CCCN3C[C@H](F)C4)nc3c(F)c(-c4nc(N)cc(C)c4C4CC4)ncc23)C1 [Example 5]")
"100 to 500 nM"
>>> reportedresult("Cc1noc(/C=C/C(=O)N2CC[C@@H](N(C)c3nc(OC[C@@]45CCCN4C[C@H](F)C5)nc4c3C[C@@H](C)[C@H](c3nc(N)cc(C)c3C(F)(F)F)C4)C2)n1 [Example 136]")
"< 10 nM"
>>> reportedresult("CN(CC1CN(C(=O)/C=C/c2nc(C(C)(F)F)no2)C1)c1nc(OC[C@@]23CCCN2C[C@H](F)C3)nc2c(F)c(-c3nc(N)cc4cccc(Cl)c34)ncc12 [Example 169]")
"< 10 nM"
>>> reportedresult("C=CC(=O)N1CC[C@@H](N(C)c2nc(OC[C@@]34CCCN3C[C@H](F)C4)nc3c(F)c(-c4nc(N)cc(C)c4C(F)(F)F)ncc23)C1 [Example 72]")
"10 to 100 nM"
>>> reportedresult("Cc1cc(/C=C/C(=O)N2CC[C@@H](N(C)c3nc(OC[C@@]45CCCN4C[C@H](F)C5)nc4c(F)c(-c5cc(O)cc(Cl)c5C5CC5)ncc34)C2)nc(C)n1 [Example 201]")
"< 10 nM"
>>> reportedresult("C=CC(=O)N1CC[C@@H](N(C)c2nc(OC[C@@]34CCCN3C[C@H](F)C4)nc3c(F)c(-c4cccc(Cl)c4C(F)(F)F)ncc23)C1 [Example 255]")
"100 to 500 nM"
>>> reportedresult("C=CC(=O)N1CC(CN(C)c2nc(OC[C@@]34CCCN3C[C@H](F)C4)nc3c(F)c(-c4nc(N)cc(C)c4C(F)(F)F)ncc23)C1 [Example 64]")
"10 to 100 nM"
>>> reportedresult("C=CC(=O)N1CC[C@@H](N(C)c2nc(OCC34CCCN3CCC4)nc3c2CC(C)C(c2nc(N)cc(C)c2C(F)(F)F)C3)C1 (stereo partly shown) [Example 32]")
"10 to 100 nM"
>>> reportedresult("C=CC(=O)N1CC[C@@H](N(C)c2nc(OC[C@@]34CCCN3C[C@H](F)C4)nc3c(F)c(-c4cccc5sc(N)nc45)ncc23)C1 [Example 244]")
"10 to 100 nM"
>>> reportedresult("Cc1noc(/C=C/C(=O)N2CC[C@@H](N(C)c3nc(OC[C@@]45CCCN4C[C@H](F)C5)nc4c(F)c(-c5nc(N)cc(C)c5C(F)(F)F)ncc34)C2)n1 [Example 55]")
"< 10 nM"
>>> reportedresult("Cc1noc(/C=C/C(=O)N2CC[C@@H](N(C)c3nc(OCC45CCCN4CCC5)nc4c3CC(C)C(c3nc(N)cc(C)c3C(F)(F)F)C4)C2)n1 (stereo partly shown) [Example 143]")
"< 10 nM"
